Endpoint summary: pKi, system: UniProtKB P32245, multiple sources combined.
pKi: −log10 of the molar value.
Cut-off 6 on pKi, inclusive. At or above means true; below means false.

{"compound": "CC(C)C[C@H](N)c1cc(C(F)(F)F)ccc1N1CCN(C(=O)Cc2ccc(Cl)cc2Cl)CC1", "system.tested": "UniProtKB P32245", "class": "false"}
{"compound": "NC(N)=NCCC[C@@H]1NC(=O)[C@@H](Cc2ccccc2)NC(=O)[C@H](Cc2cnc[nH]2)NC(=O)CCCNC(=O)[C@H](Cc2c[nH]c3ccccc23)NC1=O", "system.tested": "UniProtKB P32245", "class": "false"}
{"compound": "Cc1nc2c(cc1-c1ncccn1)CC[C@@]1(CCN(C(=O)C(C)c3ccc(Cl)cc3Cl)C1)N2 (some centres not stated)", "system.tested": "UniProtKB P32245", "class": "true"}
{"compound": "CC(C)C[C@H](N)c1cccc(F)c1N1CCN(C(=O)CCc2ccc(Cl)cc2Cl)CC1", "system.tested": "UniProtKB P32245", "class": "true"}
{"compound": "COc1ccc(CN(Cc2ccc(OC)cc2)CC2(N3CCN(C(=O)[C@H]4CN(C(C)C)C[C@@H]4c4ccc(Cl)cc4)CC3)CCCCC2)cc1", "system.tested": "UniProtKB P32245", "class": "false"}
{"compound": "CCCCCN(CCCCC)[C@H](Cc1ccc(Cl)cc1Cl)C(=O)N1CCN(c2ccccc2C(N)CC(C)C)CC1 (some centres not stated)", "system.tested": "UniProtKB P32245", "class": "true"}
{"compound": "CC(C)C[C@H](NC(=O)[C@@H](C)N)c1cc(C(F)(F)F)ccc1N1CCN(C(=O)[C@@H]2CN(C(C)C)C[C@H]2c2ccc(Cl)cc2)CC1", "system.tested": "UniProtKB P32245", "class": "true"}

###

Compiled Ki measurements on UniProtKB P32245 taken from the literature.

{"compound": "NCCC(=O)N[C@H](Cc1ccc(Cl)cc1Cl)C(=O)N1CCN(c2ncccc2CNC(CO)CO)CC1", "Ki / µM": 1.5}
{"compound": "CC(C)C[C@H](N)c1cc(C(F)(F)F)ccc1N1CCN(C(=O)CCc2ccccc2Cl)CC1", "Ki / µM": 1.7}
{"compound": "CC(C)N1C[C@@H](C(=O)N2CCN(c3ccccc3C=O)CC2)[C@H](c2ccc(Cl)cc2)C1", "Ki / µM": 1.15}
{"compound": "CCCC(C)(O)c1ccccc1N1CCN(C(=O)[C@@H](Cc2ccc(Cl)cc2Cl)NC(=O)CCN)CC1 (some centres undefined)", "Ki / µM": 0.011}

###

For reference, the following pKi results for Melanocortin receptor 4 (Homo sapiens, UniProt P32245) were taken from various sources.
pKi: −log10 of the molar value.
measured.quantity: pKi

{"compound": "N=C(N)NCCC[C@H](NC(=O)[C@H](Cc1ccccc1)NC(=O)[C@H](Cc1cnc[nH]1)NC(=O)C1CC1)C(=O)N[C@@H](Cc1c[nH]c2ccccc12)C(N)=O", "measured.quantity": "pKi", "recorded.measurement": 7.06}
{"compound": "CCN(CC)CC(c1c(F)cccc1F)N1CCN(C)CC1 (stereo unspecified)", "measured.quantity": "pKi", "recorded.measurement": 6.82}
{"compound": "CCNC(=O)N1C[C@H](C(=O)N2CCN(C3(CNCc4ccncc4)CCCCC3)CC2)[C@@H](c2ccc(Cl)cc2)C1", "measured.quantity": "pKi", "recorded.measurement": 5.34}
{"compound": "CC(C)N1C[C@@H](C(=O)N2CCN(c3ccccc3CNC3CCNCC3)CC2)[C@H](c2ccc(Cl)cc2)C1", "measured.quantity": "pKi", "recorded.measurement": 6.72}
{"compound": "CC(C)C[C@H](N)c1cc(C(F)(F)F)ccc1N1CCN(C(=O)COc2cccc3ccccc23)CC1", "measured.quantity": "pKi", "recorded.measurement": 5.59}
{"compound": "CS(=O)(=O)N1CCc2c(cccc2N2CCN(C(=O)[C@@H](Cc3ccc(Cl)cc3)NC(=O)[C@H]3Cc4ccccc4CN3)CC2)C1", "measured.quantity": "pKi", "recorded.measurement": 5.41}
{"compound": "Cn1ccnc1-c1cccc(Cl)c1CCc1cc(Br)ccc1O", "measured.quantity": "pKi", "recorded.measurement": 5.03}
{"compound": "CC(=O)N1CC[C@@H](c2ccc(Cl)cc2)[C@H]1C(=O)N1CCN(c2ccc(C)cc2[C@@H](N)C(C)C)CC1", "measured.quantity": "pKi", "recorded.measurement": 6.92}
{"compound": "CCN(CC)CCCC(C)/N=C(\\NC(=O)c1cccc(F)c1CCc1cc(Br)ccc1OC)Nc1ccccc1 (stereo unspecified)", "measured.quantity": "pKi", "recorded.measurement": 5.39}
{"compound": "Cc1ccc(N2CCN(C(=O)[C@@H]3CN(C(C)C)C[C@H]3c3ccc(Cl)cc3)CC2)c([C@H](C(C)C)N(C)C)c1", "measured.quantity": "pKi", "recorded.measurement": 7.89}
{"compound": "CC(C)C[C@H](N)c1cc(C(F)(F)F)ccc1N1CCN(C(=O)CCc2cccs2)CC1", "measured.quantity": "pKi", "recorded.measurement": 5.34}
{"compound": "CC(NC1CCCNC1)c1ccccc1N1CCN(C(=O)[C@@H](Cc2ccc(Cl)cc2)NC(=O)C(N)C2CCc3ccccc32)CC1 (stereo partly specified)", "measured.quantity": "pKi", "recorded.measurement": 6.92}
{"compound": "CCN(CC)CC(c1ccccc1Cl)N1CCN(C(=O)[C@@H](Cc2ccc(Cl)cc2)NC(=O)CC2NCc3ccccc32)CC1 (stereo in doubt; 40b)", "measured.quantity": "pKi", "recorded.measurement": 7.74}
{"compound": "CCC(C)[C@H](NC(=O)CN)c1cc(C(F)(F)F)ccc1N1CCN(C(=O)CCc2ccc(Cl)cc2Cl)CC1 (stereo partly specified)", "measured.quantity": "pKi", "recorded.measurement": 7.74}
{"compound": "CNCC(=O)N1C[C@H](C(=O)N2CCN(C3(CNCc4ccccc4)CCCCC3)CC2)[C@@H](c2ccc(Cl)cc2)C1", "measured.quantity": "pKi", "recorded.measurement": 7.00}
{"compound": "N=C(N)NCCC[C@H](NC(=O)[C@H](Cc1ccccc1)NC(=O)[C@H](Cc1c[nH]cn1)NC(=O)c1ccccc1)C(=O)N[C@@H](Cc1c[nH]c2ccccc12)C(N)=O", "measured.quantity": "pKi", "recorded.measurement": 6.80}
